FYI, the data here is from patent US7429578B2.

Entries annotated with measured melting point
property-measured: melting point

{"columns": ["compound", "recorded-result"],
 "data": [
  ["O=C1NCCc2c(-c3cccc(Cl)c3)[nH]c3cccc1c23", "147 to 149 °C"],
  ["COC(=O)CCc1ccccc1-c1[nH]c2cccc3c2c1CCNC3=O", "201 to 201.5 °C"],
  ["O=C1NCCc2c(-c3ccccc3CCCO)[nH]c3cccc1c23", "233.5 to 234.5 °C"],
  ["CNC(=O)c1[nH]c2cccc3c2c1CCNC3=O", "321 to 322 °C (dec.)"],
  ["O=C(Nc1cccc2ccccc12)c1[nH]c2cccc3c2c1CCNC3=O", "330 to 332 °C (dec.)"],
  ["O=C1NCCc2c(-c3cccc(C(F)(F)F)c3)[nH]c3cccc1c23", "212.5 to 213.5 °C"],
  ["CC(=O)Nc1cccc(-c2[nH]c3cccc4c3c2CCNC4=O)c1", "300.5 to 302 °C"],
  ["O=C1NCCc2c(-c3cccnc3)[nH]c3cccc1c23", "260.5 to 262 °C"],
  ["O=C1NCCc2c(-c3cccc(CO)c3)[nH]c3cccc1c23", "258 to 259 °C (dec.)"],
  ["CN(C)Cc1ccc(-c2[nH]c3cccc4c3c2CCNC4=O)cc1F", "221.5 to 222.5 °C"],
  ["CNCc1cccc(-c2[nH]c3cccc4c3c2CCNC4=O)c1", "190 to 192 °C"],
  ["O=C1NCCc2c(-c3ccc(Br)cc3)[nH]c3cccc1c23", "160 °C (dec.)"],
  ["O=C1NCCc2c(-c3cc4ccccc4o3)[nH]c3cccc1c23", "207 °C (dec.)"],
  ["O=C1NCCc2c(-c3cccc(Oc4ccc(F)cc4)c3)[nH]c3cccc1c23", "240 to 241 °C"],
  ["CN1CCc2c(-c3ccccc3)n(C)c3cccc(c23)C1=O [Compound 18a]", "175 to 177 °C"],
  ["O=C1NCCc2c(-c3cccc(-c4ccccc4)c3)[nH]c3cccc1c23", "160 to 163 °C"],
  ["CC(C)(C)c1ccc(-c2[nH]c3cccc4c3c2CCNC4=O)cc1", "243 to 244 °C"],
  ["O=C1NCCc2c(-c3ccc(-c4ccccc4)cc3)[nH]c3cccc1c23", "277 to 279 °C (dec.)"],
  ["O=C1NCCc2c(-c3cccc(CN4CCCC4)c3)[nH]c3cccc1c23", "219 to 223 °C (dec.)"],
  ["CNCc1cccc(-c2[nH]c3cc(F)cc4c3c2CCNC4=O)c1", "270 to 272 °C (dec.)"]
]}

* * *

Entries annotated with measured pKi
Biological target: purified PARP protein (Homo sapiens)
Assay: PARP enzyme inhibition assay
Assay type: biochemical
Conditions: [32P]NAD+ incorporation, 500 μM NAD+, 25° C.; two values in a cell = tested twice; read-out: Inhibition Constant Ki
pKi: −log10 of the molar value.
property-measured: pKi

{"columns": ["input-smiles", "experimental-system", "property-measured", "recorded-result"],
 "data": [
  ["O=C1NCCc2c(C#Cc3ccccc3)[nH]c3cccc1c23", "purified PARP protein (Homo sapiens)", "pKi", 8.19],
  ["COC(=O)CCc1ccccc1-c1[nH]c2cccc3c2c1CCNC3=O", "purified PARP protein (Homo sapiens)", "pKi", 7.94],
  ["C[N+](C)([O-])Cc1ccc(-c2[nH]c3cccc4c3c2CCNC4=O)cc1", "purified PARP protein (Homo sapiens)", "pKi", 7.74],
  ["O=C1NCCc2c(-c3ccc(Cl)c(C(F)(F)F)c3)[nH]c3cccc1c23", "purified PARP protein (Homo sapiens)", "pKi", 8.36]
]}

* * *

Target: UniProt P09874
Assay: PARP enzyme inhibition assay
Format: biochemical
Settings: Inhibition Constant Ki
property-measured: Ki

{"columns": ["input-smiles", "experimental-system", "property-measured", "recorded-result"],
 "data": [
  ["O=C1NCCc2c(-c3ccc[nH]3)[nH]c3cccc1c23", "UniProt P09874", "Ki", "7.7 nM"]
]}

* * *

Entries annotated with measured Cytotoxicity Potentiation PF50
Tested on: A549 cells
Test: Cytotoxicity potentiation assay (topotecan)
Assay type: cell-based
Conditions: test compound at 0.4 μM, ratio of IC50 of topotecan alone to IC50 of topotecan with test compound
property-measured: Cytotoxicity Potentiation PF50

{"columns": ["input-smiles", "property-measured", "recorded-result"],
 "data": [
  ["O=C1NCCc2c(-c3ccc(F)cc3)[nH]c3cccc1c23", "Cytotoxicity Potentiation PF50", 2.3],
  ["O=C1NCCc2c(-c3ccc(CN4CCCC4)c(F)c3)[nH]c3cccc1c23", "Cytotoxicity Potentiation PF50", 2.3],
  ["O=C1NN=C(CCc2ccccc2)c2c[nH]c3cccc1c23", "Cytotoxicity Potentiation PF50", 1],
  ["O=C1NCCc2c(-c3ccc(-c4ccccc4)cc3)[nH]c3cccc1c23", "Cytotoxicity Potentiation PF50", 2.0],
  ["O=C1NCCc2c(-c3ccc(CN4CCCC4)cc3)[nH]c3cccc1c23", "Cytotoxicity Potentiation PF50", 2.0]
]}

* * *

Entries annotated with measured melting point
property-measured: melting point

{"columns": ["input-smiles", "recorded-result"],
 "data": [
  ["Cn1cc2c3c(cccc31)C(=O)NCC2", "194 to 195 °C"],
  ["O=C1NCCc2c(-c3ccc(O)cc3)[nH]c3cccc1c23", "300 °C (dec.)"],
  ["O=C1NCCc2c(CCc3ccccc3)[nH]c3cccc1c23", "207 to 208 °C"],
  ["O=C1NCCc2c(-c3ccccc3Cl)[nH]c3cccc1c23", "275 °C (dec.)"],
  ["CCN(CC)CCc1ccc(-c2[nH]c3cccc4c3c2CCNC4=O)cc1", "224 to 224.5 °C (dec.)"],
  ["O=C1NCCc2c(-c3cc(C(F)(F)F)cc(C(F)(F)F)c3)[nH]c3cccc1c23", "230 °C (dec.)"],
  ["CS(=O)(=O)c1ccc(-c2[nH]c3cccc4c3c2CCNC4=O)cc1", "308 to 309 °C (dec.)"],
  ["Nc1cccc(C#Cc2[nH]c3cccc4c3c2CCNC4=O)c1", "261 to 262 °C (dec.)"],
  ["O=C(O)c1ccc(-c2[nH]c3cccc4c3c2CCNC4=O)cc1", "345.5 to 346.5 °C (dec.)"],
  ["CSc1ccccc1-c1[nH]c2cccc3c2c1CCNC3=O", "271 to 272 °C"]
]}

* * *

Target: purified PARP protein (Homo sapiens, UniProt P09874)
Sequence (P09874 whole entry): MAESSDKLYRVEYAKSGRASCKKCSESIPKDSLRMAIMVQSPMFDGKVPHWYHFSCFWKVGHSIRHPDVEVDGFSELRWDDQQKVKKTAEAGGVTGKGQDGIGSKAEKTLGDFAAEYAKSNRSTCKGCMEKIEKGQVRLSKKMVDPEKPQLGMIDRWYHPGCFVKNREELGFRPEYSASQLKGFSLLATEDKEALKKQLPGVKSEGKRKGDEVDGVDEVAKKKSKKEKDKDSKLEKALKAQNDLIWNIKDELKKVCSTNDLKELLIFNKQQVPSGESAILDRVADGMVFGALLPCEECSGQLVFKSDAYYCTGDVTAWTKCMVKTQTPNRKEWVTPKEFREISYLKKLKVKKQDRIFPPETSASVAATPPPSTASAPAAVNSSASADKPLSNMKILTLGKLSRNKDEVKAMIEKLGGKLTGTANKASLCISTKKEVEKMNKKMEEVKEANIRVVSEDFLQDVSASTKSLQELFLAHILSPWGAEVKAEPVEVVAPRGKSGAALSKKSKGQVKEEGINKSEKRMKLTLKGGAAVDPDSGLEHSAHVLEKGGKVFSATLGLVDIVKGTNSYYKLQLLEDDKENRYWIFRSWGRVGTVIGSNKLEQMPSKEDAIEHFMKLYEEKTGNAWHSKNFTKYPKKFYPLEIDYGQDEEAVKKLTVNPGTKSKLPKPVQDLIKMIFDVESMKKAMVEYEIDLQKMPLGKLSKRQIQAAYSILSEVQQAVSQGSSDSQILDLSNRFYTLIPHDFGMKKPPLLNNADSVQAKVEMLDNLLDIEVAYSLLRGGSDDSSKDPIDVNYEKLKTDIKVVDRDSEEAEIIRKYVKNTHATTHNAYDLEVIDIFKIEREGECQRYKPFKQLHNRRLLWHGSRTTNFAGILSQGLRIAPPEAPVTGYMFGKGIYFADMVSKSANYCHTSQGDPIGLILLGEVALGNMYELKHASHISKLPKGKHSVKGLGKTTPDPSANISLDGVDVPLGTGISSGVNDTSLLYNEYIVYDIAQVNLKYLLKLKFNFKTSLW
Test: PARP enzyme inhibition assay
Type: biochemical
Settings: [32P]NAD+ incorporation, 500 μM NAD+, 25° C.; two values in a cell = tested twice; read-out: Inhibition Constant Ki
property-measured: Ki (nM)

{"columns": ["input-smiles", "recorded-result"],
 "data": [
  ["O=C1NCCc2c(-c3cccc(Oc4ccc(F)cc4)c3)[nH]c3cccc1c23", 10],
  ["CNCc1ccc(-c2[nH]c3cccc4c3c2CCNC4=O)cc1", 4.1],
  ["CC(=O)Nc1ccc(F)cc1-c1[nH]c2cccc3c2c1CCNC3=O", 172],
  ["O=C1NN=C(C(F)(F)C(F)(F)F)c2c[nH]c3cccc1c23", 40],
  ["CSc1ccc(-c2[nH]c3cccc4c3c2CCNC4=O)cc1", 2.9]
]}

* * *

Biological target: purified PARP protein (Homo sapiens, UniProt P09874)
Test: PARP enzyme inhibition assay
Type: biochemical
Conditions: [32P]NAD+ incorporation, 500 μM NAD+, 25° C.; two values in a cell = tested twice; read-out: Inhibition Constant Ki
Classify: 1.0 when Ki is strictly less than 0.02 µM; 0.0 when Ki is not.

{"columns": ["input-smiles", "group"],
 "data": [
  ["Nc1cccc(C#Cc2[nH]c3cccc4c3c2CCNC4=O)c1", 1.0],
  ["CCN(CC)CCc1ccc(-c2[nH]c3cccc4c3c2CCNC4=O)cc1", 1.0],
  ["CC(C)NC(=O)c1[nH]c2cccc3c2c1CCNC3=O", 0.0],
  ["CN(C)Cc1cccc(-c2[nH]c3cccc4c3c2CCNC4=O)c1", 1.0],
  ["O=C1NCCc2c(-c3ccc(Cl)cc3)[nH]c3cccc1c23", 1.0],
  ["O=C1NCCc2c(-c3[nH]c4cccc5c4c3CCNC5=O)[nH]c3cccc1c23", 0.0],
  ["O=C(NC1CC1)c1[nH]c2cccc3c2c1CCNC3=O", 0.0],
  ["CS(=O)(=O)c1ccc(-c2[nH]c3cccc4c3c2CCNC4=O)cc1", 1.0],
  ["O=C1NCCc2c(-c3ccccc3O)[nH]c3cccc1c23", 0.0],
  ["O=C1NCCc2c(-c3ccc(CCN4CCCC4)cc3)[nH]c3cccc1c23", 1.0]
]}
